Target: human P2Y1 receptor (hP2Y1) (Homo sapiens, UniProt P47900)
Construct: a genomic fragment encompassing the entire open reading frame of the human P2Y1 receptor
Sequence (P47900 whole entry, the tested form may be a part): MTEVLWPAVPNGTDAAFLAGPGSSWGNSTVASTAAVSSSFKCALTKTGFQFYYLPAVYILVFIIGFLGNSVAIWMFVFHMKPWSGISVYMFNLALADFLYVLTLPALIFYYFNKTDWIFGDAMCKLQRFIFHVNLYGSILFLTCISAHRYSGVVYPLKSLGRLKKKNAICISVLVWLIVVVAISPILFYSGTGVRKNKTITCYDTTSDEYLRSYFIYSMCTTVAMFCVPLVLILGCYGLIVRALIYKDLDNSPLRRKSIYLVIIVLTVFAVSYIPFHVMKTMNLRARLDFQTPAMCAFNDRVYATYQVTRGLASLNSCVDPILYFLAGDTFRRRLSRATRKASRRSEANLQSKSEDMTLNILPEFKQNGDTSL
Experiment: hP2Y1 receptor activity assay (2-MeS-ADP-induced intracellular calcium mobilization in hP2Y1-JA7 Jurkat cells)
Conditions: 10^-7 M 2-MeS-ADP, read-out: IC50 on 2-MeS-ADP-mediated intracellular calcium mobilization
reported-property: IC50

Exam item: Which measured IC50 value corresponds to `CCOc1ccc2c(c1)SC1=NS(=O)(=O)C(C(=O)CS(=O)(=O)Nc3nc4ccc(OCC)cc4s3)=C(O)N12` ?
Marked response: > 100 µM

###

Molecular target: platelet ADP receptors (Homo sapiens)
Sequence (Q9H244 whole entry): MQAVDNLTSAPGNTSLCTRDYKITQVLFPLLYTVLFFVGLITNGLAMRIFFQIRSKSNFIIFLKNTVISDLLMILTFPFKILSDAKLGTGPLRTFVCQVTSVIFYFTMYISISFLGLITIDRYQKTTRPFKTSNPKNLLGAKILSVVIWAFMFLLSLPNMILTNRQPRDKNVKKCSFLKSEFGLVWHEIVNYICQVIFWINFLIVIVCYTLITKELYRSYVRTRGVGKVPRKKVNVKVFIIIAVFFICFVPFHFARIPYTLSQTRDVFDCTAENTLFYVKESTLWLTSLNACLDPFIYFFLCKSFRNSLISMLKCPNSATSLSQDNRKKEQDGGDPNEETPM
Experiment: Inhibition of [^3H]2-MeS-ADP binding to platelets
reported-property: pIC50
Lab note — pIC50 values are minus log10 of concentrations in M.

Exam item: # query: pIC50 of entry CCOc1ccc2c(c1)SC1=NS(=O)(=O)C(C(=O)CS(=O)(=O)Nc3nc4ccc(OCC)cc4s3)=C(O)N12 [Compound 1]
Marked response: 6.77

###

Task for the reader: assign each of the following compounds its reported log10 of IC50.
System: ADP-induced human platelet aggregation
Experiment: Inhibition of ADP-mediated platelet aggregation in vitro (96-well microtiter assay, washed platelets)
Assay type: cell-based
Settings: Platelet; washed human platelets, 2 μM ADP; mean of 3-12 independent experiments in duplicate; read-out: IC50 Aggregation (inhibition of ADP-dependent platelet aggregation)
In plain terms, each number is the log10 of measured IC50 in µM.

Exam item: Which measured log10 of IC50 value corresponds to O=C(CS(=O)(=O)Nc1nc2ccc(Cl)cc2s1)C1=C(O)N2C(=NS1(=O)=O)Sc1cc(Cl)ccc12 [Compound 4] ?
Marked response: 1.81

Exam item: Quick one: log10 of IC50 for COc1ccc2c(c1)SC1=NS(=O)(=O)C(C(=O)CS(=O)(=O)Nc3nc4ccc(OC)cc4s3)=C(O)N12 [Compound 8] ?
Marked response: 0.18

Exam item: Param item = Cc1ccc2c(c1)SC1=NS(=O)(=O)C(C(=O)CS(=O)(=O)Nc3nc4ccc(C)cc4s3)=C(O)N12 [Compound 3] ; retrieve measured log10 of IC50.
Marked response: 0.98

Exam item: What value of log10 of IC50 has been reported for the following compound? O=C(CS(=O)(=O)Nc1nc2ccccc2s1)C1=C(O)N2C(=NS1(=O)=O)Sc1ccccc12 [Compound 2]
Marked response: 1.41

Exam item: May I ask what log10 of IC50 has been recorded for CCOc1ccc2c(c1)SC1=NS(=O)(=O)C(C(=O)CS(=O)(=O)Nc3nc4ccc(OCC)cc4s3)=C(O)N12 [Compound 1] ?
Marked response: -0.74

Exam item: Record request: log10 of IC50 value, item O=C(CS(=O)(=O)Nc1nc2ccc([N+](=O)[O-])cc2s1)C1=C(O)N2C(=NS1(=O)=O)Sc1cc([N+](=O)[O-])ccc12 [Compound 6]
Marked response: 1.70

Exam item: May I ask what log10 of IC50 has been recorded for CS(=O)(=O)c1ccc2c(c1)SC1=NS(=O)(=O)C(C(=O)CS(=O)(=O)Nc3nc4ccc(S(C)(=O)=O)cc4s3)=C(O)N12 [Compound 5] ?
Marked response: -0.15

# credit: patent US6667306B1
